Just for reference, PubChem BioAssay (NCI) is where these values come from.

Answer each item with its documented TGI.
- System: T-47D breast
- Measurement Description: NCI tumour cell line growth inhibition, 48 h

O=C(O)C12C3CCC(CC3)C1(C(=O)O)C1CCC2C1 (configuration not stated)	> 100 µM
NNC(=O)CS(=O)(=O)Nc1ncccn1	> 100 µM
NCCSS(=O)(=O)CCN	> 100 µM
O=S(=O)(c1ccc(Cl)cc1)C(Cl)(Cl)Cl	> 33.1 µM
N#Cc1sc2c(c1OC(=O)c1ccccc1)c(=O)n(-c1ccccc1)c(=S)n2-c1ccccc1	46.9 µM
COCc1nc(N)nc(N2N=C(C)CC2(C)C)n1	> 100 µM
CN(C)CCCn1c(=O)c2ccccc2c2ccccc21	> 100 µM
CCOc1ccccc1C(=O)N1CCN(c2cc(Cl)cc(Cl)c2)CC1	29.9 µM

Consider the following items and state reported TGI for each.
1. CN1C(=O)N(C)C2C1NN=c1s/c(=C\c3ccc(C(F)(F)F)cc3)c(=O)n12 (configuration not stated)
2. CCOC(=O)c1c(C)nc2c1c(CN(C)C)c(O)c1[nH]c(C)c(C)nc12
3. O=C(NNCC(O)COc1ccccc1)c1ccccc1 (configuration not stated)
4. CNCCCNCCCCNCCCN1C(=O)c2ccc3c4c(ccc(c24)C1=O)C(=O)N(CCCNCc1ccccc1OC)C3=O

["> 100 µM", "74.1 µM", "> 100 µM", "5.97 µM"]
